- EXPERIMENTAL_PROTOCOL: Specific activity of purified CHI, absorbance decrease at 384 nm, hesperetin chalcone; further: unit not given here
- Type: biochemical
- PARTICULARS: purified CHI in 50 mM PBS, 100 μM substrate, 25° C.
RECORDED_ENDPOINT: Specific activity, Hesperetin chalcone

Examples with answers:
- CHI7: Chalcone isomerase from Clostridium sp. SY8519, access no. WP_013978403.1 (protein, Clostridium sp. SY8519) ADFKFEPMRSFIYVNCAKEDYRPKLQRWLYKTHVPDSIGQFEPYVTKYAFYPSFPTPPEGERFGYCSMQLTEHHWMVSDFDERLGIKAIAETFPPEVLLWQGNITEGMLEAMKKNGGAPGDDGGDSGNEARSTNMEGANPFIFCFAPYWWEDDIKGKGRTIEDGANYRWNVAIGYPEGVSAEEGDRWLFEEVIPVFEAAPECTRILHSKVKKEINGGSGMEHILEFWFENQSGWYQTAVEATKTLKKPAWAQQDQFPFLKPYHKFISVAVADFTMANNLVNYHGYIPRR: 6.4
- CHIera Mut11: Chalcone isomerase variant 11 from Eubacterium ramulus, genetically engineered (protein, listed as Eubacterium ramulus) MADFKFEPMRSLIYVDCVSEDYRPKLQRWIYKVHIPDSISQFEPYVTKYAFYPSFPIPPQGDRFGYARMQLTEHHWLVSPLDPRLEIKAIAETFPMDVLVWQGQIPAAAHTDAQIDSDGDAGDAARKSNNAEGNPFIFAFLPMWWEKDLKGKGRTIEDGANYRFNMTIGFPEGVDKAEGEKWLFEKVVPILQAAPECTRVLASAVKKDINGCVMDWVLEIWFENQSGWYKVMVDDMKALEKPSWAQQDAFPFLKPYHNVCSAAVADYTPSNNLANYRGYITMR: 75.5
- CHI14: Chalcone isomerase from Butyrivibrio sp. AC2005, access no. WP_026657636.1 (protein, Butyrivibrio sp. AC2005) AYEFNLMRSLIYVGLAKEEYRAKLEHWLYNHHVPESISKFSPYVTKYAFYQAYPTPPEGDRFGARKMQLTEHYWLVNEHLPEMANNIFQEFMPMDVLRWQGCIPDVDSATVHDNAESGDAGRAVGGGDFPPFIFAFVPINWEEDFKGKERTPVNGPNFRWQFLIQYPEGCSKDEGERWFHEEVVPFLTGSVRVNRLVSSKVKVNYGAPSAQFDRLVEVWFDGPEEWYDLCVNLAKDKLKKPEWAQQDTFPFLKPQHNIASMFLGDRCTSDNLTQYRGFITMR: 2.1

Then there is this molecule:
Q: Value lookup for Specific activity, Hesperetin chalcone; key = CHIera Mut7: Chalcone isomerase variant 7 from Eubacterium ramulus, genetically engineered (protein, listed as Eubacterium ramulus) MADFKFEPMRSLIYVDCVSEDYRPKLQRWIYKVHIPDSISTFEPYVTKYAFYPSFPIPPQGDRFGYARMQLTEHHWLVSELDPRLEIRAIAETFPMDVLVWQGQIPAAAHTDAQIDSDGDAGDAARKSNNAEGNPFIFAFLPMWWEKDLKGKGRTIEDGANYRFNMTIGFPEGVDKAEGEKWLFEKVVPILQAAPECTRVLASAVKKDINGCVMDWVLEIWFENQSGWYKVMVDDMKALEKPSWAQQDAFPFLKPYHNVCSAAVADYTPSNNLANYRGYITMR
A: 28.4

Each recorded value in this set is attributed to patent US20240150797A1.
